Numbers sourced from patent US4804502A.

Test system: HL-60 promyelocytic leukemia cells
measurement-notes: Inhibition of proliferation of HL-60 cells
Format: cell-based
condition-label: Homo sapiens, HL-60, 192 h; 8 days, from dose response curves; read-out: ID50 (concentration which reduced the cell number by 50%)
readout-kind: IC50 (nM)
Just the number in nM, nothing appended.

INSERT INTO measurements (molecule, readout_kind, reported) VALUES
  ('C=C1CC[C@H](O)C/C1=C/C=C1\CCC[C@]2(C)[C@@H]([C@H](C)CC#CC(O)(C(F)(F)F)C(F)(F)F)CC[C@@H]12 [Compound D]', 'IC50', 250),
  ('C=C1/C(=C\C=C2/CCC[C@]3(C)[C@@H]([C@H](C)CC#CC(O)(C(F)(F)F)C(F)(F)F)CC[C@@H]23)C[C@@H](O)C[C@@H]1O [Compound B]', 'IC50', 2);

Exercise: Write down IC50 measured for item C=C1/C(=C\C=C2/CCC[C@]3(C)[C@@H]([C@H](C)CC#CC(C)(C)O)CC[C@@H]23)C[C@@H](O)C[C@@H]1O [Compound A, 1α,25-dihydroxy-23-yne-cholecalciferol]
Solution: 6

----------
Tested on: intestinal calcium absorption (duodenum)
measurement-notes: Stimulation of Intestinal Calcium Absorption in Rat (intestinal 45Ca transport, everted gut sac)
condition-label: 12.5 ng/rat, intrajugular, 18 h
readout-kind: % of 1,25-(OH)2 D3 Effect in Rat, intestinal calcium absorption (%)
Just the number in %, nothing appended.

Worked examples, 3 compounds total:
INSERT INTO results (compound, reading_unit, reported) VALUES
  ('C=C1/C(=C\C=C2/CCC[C@]3(C)[C@@H]([C@H](C)CCCC(C)(C)O)CC[C@@H]23)C[C@@H](O)C[C@@H]1O [1,25-(OH)2 D3, reference compound]', '%', 100),
  ('C=C1CC[C@H](O)C/C1=C/C=C1\CCC[C@]2(C)[C@@H]([C@H](C)CC#CC(C)(C)O)CC[C@@H]12 [Compound C, 25-hydroxy-23-yne-cholecalciferol]', '%', 71),
  ('C=C1CC[C@H](O)C/C1=C/C=C1\CCC[C@]2(C)[C@@H]([C@H](C)CC#CC(O)(C(F)(F)F)C(F)(F)F)CC[C@@H]12', '%', 0);

# input for lookup
Exercise: Write down % of 1,25-(OH)2 D3 Effect in Rat, intestinal calcium absorption measured for item C=C1/C(=C\C=C2/CCC[C@]3(C)[C@@H]([C@H](C)CC#CC(O)(C(F)(F)F)C(F)(F)F)CC[C@@H]23)C[C@@H](O)C[C@@H]1O
Solution: 124
